TARGET: IGF-1R (Homo sapiens)
Construct: expressed in transfected cells
Sequence (P08069 31-1367): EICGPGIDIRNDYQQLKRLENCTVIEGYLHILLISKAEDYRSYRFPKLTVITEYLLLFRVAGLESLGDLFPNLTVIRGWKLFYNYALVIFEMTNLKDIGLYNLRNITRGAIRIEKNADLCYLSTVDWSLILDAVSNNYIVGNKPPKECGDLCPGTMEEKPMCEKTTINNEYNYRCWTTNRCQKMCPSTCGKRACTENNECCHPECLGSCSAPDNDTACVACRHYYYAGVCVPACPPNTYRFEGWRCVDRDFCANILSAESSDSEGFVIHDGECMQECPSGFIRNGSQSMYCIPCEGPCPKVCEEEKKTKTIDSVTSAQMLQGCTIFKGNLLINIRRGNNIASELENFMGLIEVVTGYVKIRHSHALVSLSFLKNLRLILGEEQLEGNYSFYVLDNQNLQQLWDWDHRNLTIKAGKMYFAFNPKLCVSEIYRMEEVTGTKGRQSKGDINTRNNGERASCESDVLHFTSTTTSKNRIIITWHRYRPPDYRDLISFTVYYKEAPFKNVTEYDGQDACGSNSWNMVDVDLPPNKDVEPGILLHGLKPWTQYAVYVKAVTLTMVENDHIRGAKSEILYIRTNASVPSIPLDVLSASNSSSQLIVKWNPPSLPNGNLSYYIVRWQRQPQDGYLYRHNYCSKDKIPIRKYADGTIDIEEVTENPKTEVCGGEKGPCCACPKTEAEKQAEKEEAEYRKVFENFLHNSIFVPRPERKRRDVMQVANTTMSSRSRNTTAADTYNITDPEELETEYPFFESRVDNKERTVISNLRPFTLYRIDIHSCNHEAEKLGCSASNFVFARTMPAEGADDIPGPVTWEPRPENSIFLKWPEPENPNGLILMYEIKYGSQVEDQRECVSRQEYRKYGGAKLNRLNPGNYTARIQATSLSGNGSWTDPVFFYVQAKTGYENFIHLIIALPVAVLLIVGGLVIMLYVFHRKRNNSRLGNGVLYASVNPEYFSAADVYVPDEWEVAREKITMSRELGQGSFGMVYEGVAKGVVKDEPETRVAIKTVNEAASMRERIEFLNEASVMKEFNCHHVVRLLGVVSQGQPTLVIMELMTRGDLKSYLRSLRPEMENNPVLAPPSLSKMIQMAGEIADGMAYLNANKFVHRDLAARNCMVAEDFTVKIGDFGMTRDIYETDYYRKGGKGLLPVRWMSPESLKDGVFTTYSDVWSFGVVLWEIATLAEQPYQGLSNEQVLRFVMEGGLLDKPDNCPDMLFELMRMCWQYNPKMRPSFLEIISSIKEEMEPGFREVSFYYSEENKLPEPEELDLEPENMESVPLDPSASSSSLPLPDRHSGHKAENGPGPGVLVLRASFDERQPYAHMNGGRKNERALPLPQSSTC
EXPERIMENT: Example B-2: IGF-1R Assay (PathHunter cell lines, EC80 agonist challenge, chemiluminescent detection)
Assay type: cell-based
MEASUREMENT_CONDITIONS: PathHunter cells, compound 60 minutes at 37° C., EC80 agonist 3 hours; read-out: IC50, Biological Activity against IGF-1R (Table B2)
Protocol: PathHunter cell lines were expanded from freezer stocks according to standard procedures. Cells were seeded in a total volume of 20 μL into white walled, 384-well microplates and incubated for the appropriate time prior to testing. Cells are pre-incubated with compound followed by EC80 agonist challenge as follows: • R. 1. […] Compound activity was analyzed using CBIS data analysis suite (ChemInnovation, CA). […]
pIC50: −log10 of the molar value.
REPORTED_PROPERTY: pIC50

Use these answered entries as a reference point.
chemical_string=CC(C)OC[C@H](C)Nc1cc(CN2C(=O)N(c3ccc(C4(C(F)(F)F)CC4)cc3)C(=O)C2(C)C)ccn1 result="5.70 to 6.30"
chemical_string=CC1(C)C(=O)N(c2ccc(C3(C(F)(F)F)CC3)cc2)C(=O)N1Cc1ccnc2c1CC(=O)N2 result="≥ 6.30"
chemical_string=CC1(C)C(=O)N(c2ccc(S(=O)(=O)C(F)(F)F)cc2)C(=O)N1Cc1ccnc(NCC(F)F)c1 result="≥ 6.30"

Now turn to the next compound.
What pIC50 value was documented for this compound, `CC(C)Nc1cc(CN2C(=O)N(c3ccc4c(c3)N(S(C)(=O)=O)CC43CC3)C(=O)C2(C)C)ccn1` ?
≥ 6.30
